Target: T1, human IL-25 expressed with a C-terminal myc-myc-hexahistidine tag (human)
T1 construct: also called human IL-25-MMH; hIL-25-MMH
T1 chain: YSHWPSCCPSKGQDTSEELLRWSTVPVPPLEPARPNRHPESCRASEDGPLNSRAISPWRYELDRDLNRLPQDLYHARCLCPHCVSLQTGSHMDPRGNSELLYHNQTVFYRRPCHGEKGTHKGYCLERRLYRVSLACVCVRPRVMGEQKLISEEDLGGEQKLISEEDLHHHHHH
Assay: SPR Biacore, captured mAb, 37°C
Endpoint Name: kon (M⁻¹ s⁻¹)
Number in M⁻¹ s⁻¹, nothing else.

Worked examples, 2 binders total:
- Binder: "H4H10905P (antibody, human IgG4, V domains shown) VH: QVQLVQSGAEVKKPGTSVKVSCKASGYTFTNYGISWVRQAPGQGLEWLGWISAYNDNTDYAQKLQARVTMTTDTFTSTAYMDLRSLRSDDTAVYYCARVPITGTTSSFDFWGQGTLVTVSS VL: DIQMTQSPSSLSASVGDRVTISCRASQTIYSYLNWFQQKPGKAPKLLIYDASSLQSGVPSRFSGSGSGTHFTLTISSLQPEDFATYFCQQTYSTPLTFGGGTKVEIK"
  U: "M⁻¹ s⁻¹"
  kon: 809000
- Binder: "H4H10883P (antibody, human IgG4, V domains shown) VH: QVQLQESGPGLVKSSETLSLTCTVSGGSISSYYWSWIRQPPGKGLEWIGFIYYSGSTNYNPSLKSRVTFSVDTSKNHFSLKLNSVTATDTAVYYCARHYFDSGTYELGPFDYWGQGTLVTVSS VL: DIVMTQSPDSLAVSLGERATINCKSSQNILLTSSNKNYLTWYQQKPGQPPKLLIYWASIRESGVPDRFSGSGSGTDFTLTISSLQAEDVALYFCQQYYITPFTFGPGTKVDIK"
  U: "M⁻¹ s⁻¹"
  kon: "1.58e+06"

Now consider a different binder.
Asked: Quick check: kon of H4H10861P (antibody, human IgG4, V domains shown) VH: QVQLQESGPGLVKPSETLSLTCTVSGASISNYYWSWIRQPPGKGLEWIGYIFYSGNTNYNPSLKSRVTISVDTSKNQFSLKLSSVTAADTAVYYCARVRFSDYELNWFDPWGQGTLVTVSS VL: DIVMTQSPDSLAVFLGERATINCRSSQSVFLGSNNKNYLAWYQQKPGQPPKLLIYWASSRESGVPDRFSGSGSGTDFTLTINSLQAEDVAVYYCQQYFITPLTFGGGTKVEIK ?
Given back: 2.91e+06
